Data provenance is patent US9073879B2.

# Experimental System: human FAAH (Homo sapiens, UniProt O00519)
# Construct: The full length FAAH was subcloned into the mammalian expression vector, pcDEF.neo, using XbaI and EcoRI restriction sites; expressed in transfected cells
# Sequence (O00519 whole entry): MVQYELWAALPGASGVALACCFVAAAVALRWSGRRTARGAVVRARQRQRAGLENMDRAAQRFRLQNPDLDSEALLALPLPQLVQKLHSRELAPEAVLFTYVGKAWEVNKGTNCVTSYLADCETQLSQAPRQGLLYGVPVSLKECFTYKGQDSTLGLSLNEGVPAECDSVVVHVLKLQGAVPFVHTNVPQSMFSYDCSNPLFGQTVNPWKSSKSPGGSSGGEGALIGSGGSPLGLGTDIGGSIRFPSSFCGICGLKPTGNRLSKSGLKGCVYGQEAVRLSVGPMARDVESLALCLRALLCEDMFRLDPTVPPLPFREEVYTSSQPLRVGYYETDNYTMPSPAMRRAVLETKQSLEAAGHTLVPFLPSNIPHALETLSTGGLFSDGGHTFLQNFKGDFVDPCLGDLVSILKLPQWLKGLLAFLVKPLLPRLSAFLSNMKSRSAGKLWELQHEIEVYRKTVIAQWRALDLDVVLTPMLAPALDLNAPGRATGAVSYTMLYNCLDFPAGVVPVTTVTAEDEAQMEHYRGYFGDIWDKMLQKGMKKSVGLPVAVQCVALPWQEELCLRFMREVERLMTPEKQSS
# Procedure Summary: FAAH whole cell assay (human Whole cell, FAAH_CHO, AAMCA substrate)
# Assay type: cell-based
# Condition Parameters: CHO cells expressing human FAAH, whole cell format; read-out: human cell_IC50
Value Type: IC50 (nM)
The reply should be a number in nM, with the unit left off.

Per the record, Clc1ccc(Sc2oc(C3CC3)nc2COc2ccc3[nH]ncc3c2)nc1 has IC50 of 979

IC50 reading for CCOC(=O)c1ccc(NCc2nc(-c3ccc(F)cc3)oc2Sc2ccc(Cl)cn2)nc1 : 24

IC50 recorded for this compound, COC(=O)c1ccc(OCc2nc(-c3ccc(F)cc3)oc2Sc2ccc(Cl)cn2)nc1 , is 10

Measured IC50, CN(C)C(=O)c1ccc(OCc2nc(-c3ccc(F)cc3)oc2Sc2ccc(Cl)cn2)cc1 : 1450

get_value(item= COC(=O)[C@H]1CC[C@H](NCc2nc(C3CCOCC3)oc2Sc2ccc(Cl)cc2)CC1 , readout=IC50) returns 27

Given item Fc1ccc(-c2nc(COC3CCNCC3)c(Sc3ccc(Cl)cn3)o2)cc1 , the value recorded as its IC50 is 3360

Record summary for Fc1ccc(-c2nc(COc3ccc4[nH]ccc4c3)c(Sc3ccc(Cl)cn3)o2)cc1 : reported IC50 = 298

Record Cn1ncnc1COCc1nc(-c2ccc(F)cc2)oc1Sc1ccc(Cl)cn1 . Reported IC50: 2150

====

# Experimental System: human FAAH (Homo sapiens, UniProt O00519)
# Construct: The full length FAAH was subcloned into the mammalian expression vector, pcDEF.neo, using XbaI and EcoRI restriction sites; expressed in transfected cells
# Procedure Summary: FAAH whole cell assay (human Whole cell, FAAH_CHO, AAMCA substrate)
# Assay type: cell-based
# Condition Parameters: CHO cells expressing human FAAH, whole cell format; read-out: human cell_IC50
# Description: To assist in assay development stable cell lines for human, murine and rat full length FAAH were developed. Human FAAH cDNA (Accession No: NM_001441.1) was purchased from Origene (Rockville, Md.). The full length FAAH was subcloned into the mammalian expression vector, pcDEF.neo, using XbaI and EcoRI restriction sites and used for stable cell line generation. […]
Exercise: for every item that follows, state its recorded pIC50.
Please note pIC50 is a logarithmic value: minus log10 of concentration in mol/L. Answer with that number alone.

Value of pIC50 reported for the compound CS(=O)(=O)N1CCC(NC(=O)c2nc(-c3ccc(F)cc3)oc2Sc2ccc(Cl)cn2)CC1 [Example A5.2] is 6.40

Form field pIC50, entry COC(=O)c1ccc(OCc2nc(-c3ccc(F)cc3)oc2Sc2ccc(Cl)cn2)cc1 [Example B2.11] : 7.89

In plain terms, O=C(O)c1ccc(OCc2nc(-c3ccc(F)cc3)oc2Sc2ccc(Cl)cn2)cc1 [Example B2.11.1] has a documented pIC50 of 6.60

response.value for COC(=O)c1ccc(OCc2nc(-c3ccc(F)cc3)oc2Sc2ccc(Cl)cn2)cn1 [Example B2.5] (field: pIC50) = 6.84

Please fill in: pIC50 reported for Fc1ccc(-c2nc(COC3CCOCC3)c(Sc3ccc(Cl)cn3)o2)cc1 [Example B2.15] = 6.46

For Fc1ccc(-c2nc(COc3ccc4[nH]ncc4c3)c(Sc3ccc(Cl)cn3)o2)cc1 [Example B2.1] the compound record lists pIC50 as 7.70

// pIC50 lookup, compound = CNC(=O)c1ccc(OC(C)c2nc(-c3ccc(F)cc3)oc2Sc2ccc(Cl)cn2)cc1 (stereo not drawn) [Example B7.2] , result: 7.10

COC(=O)c1ccc(NCc2nc(-c3ccc(F)cc3)oc2Sc2ccc(Cl)cn2)cc1 [Example B5.1] yielded pIC50 of 7.74

response.value for CC(O)c1ccc(OCc2nc(-c3ccc(F)cc3)oc2Sc2ccc(Cl)cn2)cc1 (stereo not drawn) [Example B2.7] (field: pIC50) = 6.70

Notebook: N#Cc1ccc(OCc2nc(-c3ccc(F)cc3)oc2Sc2ccc(Cl)cn2)cc1 [Example B2.6] , pIC50 read as 6.44

Sure, the documented pIC50 for O[C@H]1CC[C@H](NCc2nc(C3CCOCC3)oc2Sc2ccc(Cl)cc2)CC1 [Example B5.13] is 5.55

The compound CNC(=O)c1ccc(OCc2nc(-c3ccc(F)cc3)oc2Sc2ccc(Cl)cn2)cc1 [Example B2.11.4] showed pIC50 equal to 8.30

Lab book: pIC50 of Fc1ccc(-c2nc(COc3ccc4c(c3)OCO4)c(Sc3ccc(Cl)cn3)o2)cc1 [Example B2.4] noted as 6.65

Measured pIC50 of Fc1ccc(-c2nc(CNc3ccc4[nH]ncc4c3)c(Sc3ccc(Cl)cn3)o2)cc1 [Example B5.6] : 7.42

pIC50 in this record for COC(=O)c1ccc(NC(=O)c2nc(-c3ccc(F)cc3)oc2Sc2ccc(Cl)cn2)cc1 [Example A5.3] : 7.41

Per the records, this compound ( COC(=O)c1ccc(OC(C)c2nc(-c3ccc(F)cc3)oc2Sc2ccc(Cl)cn2)cc1 (stereo not drawn) [Example B7.1] ) has pIC50 equal to 7.41

// CSc1ccc(OCc2nc(-c3ccc(F)cc3)oc2Sc2ccc(Cl)cn2)cc1 [Example B2.2] : pIC50 value = 6.29

Entry CCNC(=O)c1ccc(OCc2nc(-c3ccc(F)cc3)oc2Sc2ccc(Cl)cn2)nc1 [Example B2.16] — recorded pIC50 = 8.00

For this compound ( Clc1ccc(Sc2oc(C3CCOCC3)nc2COc2ccc3[nH]ncc3c2)cc1 [Example B2.17] ), measured pIC50 is 7.01

Briefly, pIC50 measured for CCNC(=O)c1ccc(NCc2nc(-c3ccc(F)cc3)oc2Sc2ccc(Cl)cn2)nc1 [Example B5.8] : 7.38

Per the record, CCNC(=O)c1ccc(NCc2nc(-c3ccc(F)cc3)oc2Sc2ccc(Cl)cn2)cc1 [Example B5.4] has pIC50 of 8.10

# pIC50 of COC(=O)[C@H]1CC[C@H](NCc2nc(-c3ccc(F)cc3)oc2Sc2ccc(Cl)cn2)CC1 [Example B5.10] = 7.51

Field pIC50 (entry CS(=O)(=O)c1ccc(NC(=O)c2nc(-c3ccc(F)cc3)oc2Sc2ccc(Cl)cn2)cc1 [Example A5.1] ) reads 6.41

Record summary for OC(c1ccc(OCc2nc(-c3ccc(F)cc3)oc2Sc2ccc(Cl)cn2)cc1)C(F)(F)F (stereo not drawn) [Example B2.8] : reported pIC50 = 6.29

Lab note: measured pIC50 of COC(=O)[C@H]1CC[C@@H](NCc2nc(-c3ccc(F)cc3)oc2Sc2ccc(Cl)cn2)CC1 [Example B5.11] was 7.30

Reported pIC50 of O=C(NCC(F)(F)F)c1ccc(OCc2nc(-c3ccc(F)cc3)oc2Sc2ccc(Cl)cn2)cc1 [Example B2.11.5] : 7.66

Lab note: CCNC(=O)c1ccc(OCc2nc(-c3ccc(F)cc3)oc2Sc2ccc(Cl)cn2)cc1 [Example B2.11.2] gave pIC50 of 7.85

Measured pIC50, O[C@H]1CC[C@H](NCc2nc(-c3ccc(F)cc3)oc2Sc2ccc(Cl)cn2)CC1 [Example B5.9] : 6.86

Field pIC50 (entry CS(=O)(=O)c1ccc(OCc2nc(-c3ccc(F)cc3)oc2Sc2ccc(Cl)cn2)cc1 [Example B2.3] ) reads 6.27

The recorded pIC50 for entry COC(=O)c1ccc(OCc2nc(C3CC3)oc2Sc2ccc(Cl)cn2)cc1 [Example D4.1] equals 5.88

====

# Experimental System: human FAAH (Homo sapiens, UniProt O00519)
# Construct: The full length FAAH was subcloned into the mammalian expression vector, pcDEF.neo, using XbaI and EcoRI restriction sites; expressed in transfected cells
# Procedure Summary: FAAH cell lysate assay (human lysate, FAAH_CHO, AAMCA substrate)
# Assay type: biochemical
# Condition Parameters: lysate of CHO cells expressing human FAAH; read-out: human lysate_IC50
Value Type: IC50 (nM)
All answers are understood in nM, so give the number only.

# IC50 (compound: CCNC(=O)c1ccc(OCc2nc(-c3ccc(F)cc3)oc2Sc2ccc(Cl)cn2)nc1 [Example B2.16] ) is 4

IC50 measured on O[C@H]1CC[C@H](NCc2nc(-c3ccc(F)cc3)oc2Sc2ccc(Cl)cn2)CC1 [Example B5.9] = 45

Looking up CCNC(=O)c1ccc(OCc2nc(-c3ccc(F)cc3)oc2Sc2ccc(Cl)cn2)cc1 [Example B2.11.2] , I see its IC50 listed as 3

The compound COC(=O)c1ccc(OCc2nc(C3CC3)oc2Sc2ccc(Cl)cn2)cc1 [Example D4.1] showed IC50 equal to 187

IC50 reading for CSc1ccc(OCc2nc(-c3ccc(F)cc3)oc2Sc2ccc(Cl)cn2)cc1 [Example B2.2] : 55

Entry COC(=O)c1ccc(NC(=O)c2nc(-c3ccc(F)cc3)oc2Sc2ccc(Cl)cn2)cc1 [Example A5.3] — recorded IC50 = 10

For Clc1ccc(Sc2oc(C3CC3)nc2COc2ccc3[nH]ncc3c2)nc1 [Example D4.2] the compound record lists IC50 as 317

# compound CCOC(=O)c1ccc(NCc2nc(-c3ccc(F)cc3)oc2Sc2ccc(Cl)cn2)nc1 [Example B5.7] ; its IC50 = 6

Quick note, IC50 for COC(=O)c1ccc(OCc2nc(-c3ccc(F)cc3)oc2Sc2ccc(Cl)cn2)nc1 [Example B2.9] landed at 2

Note to self: IC50 recorded for OC(c1ccc(OCc2nc(-c3ccc(F)cc3)oc2Sc2ccc(Cl)cn2)cc1)C(F)(F)F (centres unmarked) [Example B2.8] was 130

Please fill in: IC50 reported for Fc1ccc(-c2nc(CNc3ccc4[nH]ncc4c3)c(Sc3ccc(Cl)cn3)o2)cc1 [Example B5.6] = 22

IC50 for CN(C)C(=O)c1ccc(OCc2nc(-c3ccc(F)cc3)oc2Sc2ccc(Cl)cn2)cc1 [Example B2.11.3] is 149

The compound identified as CCNC(=O)c1ccc(NCc2nc(-c3ccc(F)cc3)oc2Sc2ccc(Cl)cn2)cc1 [Example B5.4] registered its IC50 at 3

Summary for this compound, Fc1ccc(-c2nc(COC3CCNCC3)c(Sc3ccc(Cl)cn3)o2)cc1 [Example B2.14] : IC50 is 902

Field IC50 (entry CC(O)c1ccc(OCc2nc(-c3ccc(F)cc3)oc2Sc2ccc(Cl)cn2)cc1 (centres unmarked) [Example B2.7] ) reads 12

So for CS(=O)(=O)N1CCC(NC(=O)c2nc(-c3ccc(F)cc3)oc2Sc2ccc(Cl)cn2)CC1 [Example A5.2] , the logged IC50 turned out to be 57

get_value(item= Cn1ncnc1COCc1nc(-c2ccc(F)cc2)oc1Sc1ccc(Cl)cn1 [Example B2.12] , readout=IC50) returns 807

Measured IC50 of COC(=O)c1ccc(OCc2nc(-c3ccc(F)cc3)oc2Sc2ccc(Cl)cn2)cc1 [Example B2.11] : 2

For this compound ( CNC(=O)c1ccc(OCc2nc(-c3ccc(F)cc3)oc2Sc2ccc(Cl)cn2)cc1 [Example B2.11.4] ), measured IC50 is 3

Briefly, IC50 measured for CS(=O)(=O)c1ccc(NC(=O)c2nc(-c3ccc(F)cc3)oc2Sc2ccc(Cl)cn2)cc1 [Example A5.1] : 61

Entry Fc1ccc(-c2nc(COc3ccc4c(c3)OCO4)c(Sc3ccc(Cl)cn3)o2)cc1 [Example B2.4] — recorded IC50 = 24

The compound listed as COC(=O)c1ccc(OC(C)c2nc(-c3ccc(F)cc3)oc2Sc2ccc(Cl)cn2)cc1 (centres unmarked) [Example B7.1] shows IC50 equal to 8

# IC50 (compound: CCNC(=O)c1ccc(NCc2nc(-c3ccc(F)cc3)oc2Sc2ccc(Cl)cn2)nc1 [Example B5.8] ) is 17

Looking up Fc1ccc(-c2nc(COC3CCOCC3)c(Sc3ccc(Cl)cn3)o2)cc1 [Example B2.15] , I found its IC50 recorded as 88

Entry CNC(=O)c1ccc(OC(C)c2nc(-c3ccc(F)cc3)oc2Sc2ccc(Cl)cn2)cc1 (centres unmarked) [Example B7.2] , IC50 reported as 21

The value of IC50 measured for the compound N#Cc1ccc(OCc2nc(-c3ccc(F)cc3)oc2Sc2ccc(Cl)cn2)cc1 [Example B2.6] turned out to be 47
